system: HIV-1ADA; assay: Half-maximum effective concentration (EC50) assay, HIV-1 RT activity in MDM; format: cell-based; details: Human immunodeficiency virus 1, 240 h, HIV-1ADA MOI 0.1, 10 days
measuredProperty: EC50 (µM)

> print(dat)
                          structurenotation  measuredproperty  readoutvalue
1  C[C@H]1CO[C@@H]2Cn3cc(C(=O)NCc4ccc(F)cc4F)c(=O)c(O)c3C(=O)N12              EC50        0.0284
2  CCCCCCCCCCCCCCCCCC(=O)Oc1c2n(cc(C(=O)NCc3ccc(F)cc3F)c1=O)C[C@H]1OC[C@H](C)N1C2=O              EC50        0.0447
